test system: BT-549 breast; test: NCI tumour cell line growth inhibition, 48 h
Value kind: log10(TGI) (log10 of the value in µM)

{"Compound": "CC(C)(CC(O)C#N)/[N+]([O-])=[N+](\\[O-])C(C)(C)CC(O)C#N (stereo not given)", "log10(TGI)": 1.90}
{"Compound": "CN1CCN(CC(O)COc2c(Br)c(Br)c(Br)c3c2OC(C)(C)C3)CC1 (stereo not given)", "log10(TGI)": 1.42}
{"Compound": "CCOC(=O)CSc1nnc(C(Sc2nc(-c3ccccc3)c(-c3ccccc3)[nH]2)C(C)C)n1-c1ccccc1 (stereo not given)", "log10(TGI)": 1.72}
{"Compound": "N#CN1CC[C@H](C(=O)Nc2ncc(-c3ccncc3)s2)C1", "log10(TGI)": -0.73}
{"Compound": "C#CCOc1cccc(Nc2ncnc3c(NC(=O)CCl)cccc23)c1", "log10(TGI)": 1.80}
{"Compound": "BrCc1ccc(CBr)cc1", "log10(TGI)": 0.58}
{"Compound": "CN(C)CC1CCCC1=O (stereo not given)", "log10(TGI)": 1.14}
{"Compound": "COc1ccc(/C=N/NC(=O)Cn2c(-c3ccc(S(C)(=O)=O)cc3)nc3cc(Cl)ccc32)cc1", "log10(TGI)": 1.69}
{"Compound": "Nc1ccccc1SCc1csc(-c2ccc(Cl)cc2)n1", "log10(TGI)": 1.86}

###

system: HL-60(TB) leukemia; experiment: NCI tumour cell line growth inhibition, 48 h
Listed next: entries and their corresponding TGI.

{"Compound": "CCC1(O)C(=O)OCc2c1cc1n(c2=O)Cc2cc3cc(N)ccc3nc2-1 (stereo not drawn)", "Modifier": "=", "TGI, µM": 0.0145}
{"Compound": "CC(C)C1=CC23CCC4C(C)(C(=O)O)CCCC4(C)C2CC1C1C(=O)N(c2ccc(C(=O)O)cc2)C(=O)C13 (stereo not drawn)", "Modifier": ">", "TGI, µM": 100}
{"Compound": "COc1ccc(OC)c(Cn2cc3c(c2)-c2oncc2CC3)c1", "Modifier": "=", "TGI, µM": 6.74}
{"Compound": "CCOC(=O)c1ccc(C(=O)C(C(C)=O)C(=O)OC(C)(C)C)[nH]1 (stereo not drawn)", "Modifier": ">", "TGI, µM": 100}
{"Compound": "Nc1ccc(CCN2CCN(CCCc3ccccc3)CC2)cc1", "Modifier": ">", "TGI, µM": 100}
{"Compound": "CCn1c2ccccc2c2cc(/C=C(/C#N)C(N)=O)ccc21", "Modifier": ">", "TGI, µM": 67.3}
{"Compound": "CCN1C(=O)N(CC)C2C1NN=c1s/c(=C3\\C(=O)N(CCc4ccccc4)c4ccccc43)c(=O)n12 (stereo not drawn)", "Modifier": "=", "TGI, µM": 1.56}
{"Compound": "CCCCCCCCCCCCCP(=O)(O)NCC(N)=O", "Modifier": "=", "TGI, µM": 67.3}
{"Compound": "COC(=O)c1c(O)ccc2c1C1(Cc3ccccc3C1=O)C(O)O2 (stereo not drawn)", "Modifier": "=", "TGI, µM": 40.4}
{"Compound": "COC12c3ccccc3-c3ccccc3C1[C@H]1C(=O)OC(=O)[C@H]12 (stereo partly drawn)", "Modifier": ">", "TGI, µM": 10}
{"Compound": "CCN(CC)CCNCc1cc(Cl)cc2c1OCOC2", "Modifier": ">", "TGI, µM": 10}
{"Compound": "CSCCC(NC(=O)Cc1ccc(C(=O)c2ccccc2)cc1)C(=O)O (stereo not drawn)", "Modifier": ">", "TGI, µM": 100}
{"Compound": "CC1=CC(=O)C(O)C2(C)C1CC(O)C13COC4(C)C(OC(=O)C41)C(O)C23 (stereo not drawn)", "Modifier": ">", "TGI, µM": 100}
{"Compound": "O=[As](O)(O)c1ccc(N=Nc2ccc(O)cc2)cc1", "Modifier": ">", "TGI, µM": 100}
{"Compound": "CCC(c1c[nH]c2ccc(Br)cc12)c1c[nH]c2ccc(Br)cc12", "Modifier": "=", "TGI, µM": 16.3}
{"Compound": "C[C@H]1C=C2[C@@H]3CC(C)(C(=O)O)CC[C@]3(C)CC[C@]2(C)[C@]2(C)CC[C@H]3C(C)(C)[C@@H](OC(=O)c4cccc5c(=O)c6ccccc6[nH]c45)CC[C@]3(C)[C@@H]12 (stereo partly drawn)", "Modifier": ">", "TGI, µM": 100}
{"Compound": "N/N=C1\\CC(=O)NC(=O)N1", "Modifier": ">", "TGI, µM": 100}
{"Compound": "COc1ccc(C(=O)N2c3ccccc3Sc3ccccc32)c(OC)c1", "Modifier": "=", "TGI, µM": 18.5}
{"Compound": "COc1ccc2oc(=N)c(C(=O)Nc3ccccn3)cc2c1", "Modifier": ">", "TGI, µM": 100}
{"Compound": "COC(=O)c1cnn2c1n[n+]([O-])c1ccccc12", "Modifier": ">", "TGI, µM": 100}
{"Compound": "COc1ccc(C(Cl)=C(c2ccc(OCCN(C)C)cc2)c2ccc(OCCN(C)C)cc2)cc1", "Modifier": "=", "TGI, µM": 3.65}
{"Compound": "C[CH2][Pb]([CH2]C)([CH2]C)[O]C(=O)c1ccc2ccccc2n1", "Modifier": ">", "TGI, µM": 10}
{"Compound": "CC1CN1c1c(C(=O)/C=C/c2ccccc2)c(-c2ccccc2)nn(C)c1=O (stereo not drawn)", "Modifier": "=", "TGI, µM": 49.7}
{"Compound": "Cc1c(C2=C(c3cn(C)c4ccccc34)C(=O)NC2=O)c2ccccc2n1C", "Modifier": ">", "TGI, µM": 25}
{"Compound": "CC(C)=C/C=C1/CS(=O)(=O)C=C1C", "Modifier": ">", "TGI, µM": 100}
{"Compound": "N#C/C(=C\\c1c[nH]c2ccccc12)C(=O)c1ccc(O)c(O)c1", "Modifier": "=", "TGI, µM": 59.5}
{"Compound": "COc1ccc(/C=N/NC(=O)Cn2c(-c3ccc(S(C)(=O)=O)cc3)nc3cc(Cl)ccc32)cc1", "Modifier": "=", "TGI, µM": 7.3}
{"Compound": "CC1(C)N=C(N)N=C(N)N1c1ccc(CCCCc2ccc(S(=O)(=O)F)cc2)c(Cl)c1", "Modifier": "=", "TGI, µM": 23.6}
